# Run Description: activity coefficient (dimensionless); of the first substance listed, at infinite dilution; xn = mol fraction of the nth substance listed
# Test Context: 353.15 K; 101 kPa; Liquid; Chromatography; x1 = 0
Assay Metric: activity coefficient
Write no unit; give the number alone.

Cc1ccccc1C [1,2-dimethylbenzene] + CCCCCCCCCCCCCC[N+](CCCCCC)(CCCCCC)CCCCCC.C[C@H](O)C(=O)[O-] :: 0.55
CCO [ethanol] + CCCCCCCCCCCCCC[N+](CCCCCC)(CCCCCC)CCCCCC.C[C@H](O)C(=O)[O-] :: 0.03

Would you kindly look at the next entry?
## Input What does the record list as activity coefficient for c1ccncc1 [pyridine] + CCCCCCCCCCCCCC[N+](CCCCCC)(CCCCCC)CCCCCC.C[C@H](O)C(=O)[O-] ?
## Output 0.34

---

This section presents compounds with their documented activity coefficient values.
# Run Description: activity coefficient (dimensionless); of the first substance listed, at infinite dilution; xn = mol fraction of the nth substance listed
# Test Context: 323.15 K; 101 kPa; Liquid; Chromatography; x1 = 0
Write no unit; give the number alone.

In the examples that follow, each entry is paired with its recorded activity coefficient.
CCC[N+](=O)[O-] [1-nitropropane] + CC1(C)[C@@H]2CC[C@@]1(CS(=O)(=O)[O-])C(=O)C2.CCCCCCCCCCCCCC[N+](CCCCCC)(CCCCCC)CCCCCC :: 0.35
Cc1ccc(C)cc1 [1,4-dimethylbenzene] + CCCCCCCCCCCCCC[N+](CCCCCC)(CCCCCC)CCCCCC.C[C@H](O)C(=O)[O-] :: 0.58

## Input What does the record list as activity coefficient for C[N+](=O)[O-] [nitromethane] + CC1(C)[C@@H]2CC[C@@]1(CS(=O)(=O)[O-])C(=O)C2.CCCCCCCCCCCCCC[N+](CCCCCC)(CCCCCC)CCCCCC ?
## Output 0.34

---

This section presents compounds with their documented activity coefficient values.
# Run Description: activity coefficient (dimensionless); of the first substance listed, at infinite dilution; xn = mol fraction of the nth substance listed
# Test Context: 373.15 K; 101 kPa; Liquid; Chromatography; x1 = 0
Write no unit; give the number alone.

C[N+](=O)[O-] [nitromethane] + CCCCCCCCCCCCCC[N+](CCCCCC)(CCCCCC)CCCCCC.C[C@H](O)C(=O)[O-] :: 0.31

## Input What does the record list as activity coefficient for Cc1ccccc1 [toluene] + CCCCCCCCCCCCCC[N+](CCCCCC)(CCCCCC)CCCCCC.C[C@H](O)C(=O)[O-] ?
## Output 0.48

## Input What does the record list as activity coefficient for CCOCC [diethyl ether] + CCCCCCCCCCCCCC[N+](CCCCCC)(CCCCCC)CCCCCC.C[C@H](O)C(=O)[O-] ?
## Output 0.77

## Input What does the record list as activity coefficient for CCO [ethanol] + CCCCCCCCCCCCCC[N+](CCCCCC)(CCCCCC)CCCCCC.C[C@H](O)C(=O)[O-] ?
## Output 0.04

## Input What does the record list as activity coefficient for ClCCl [dichloromethane] + CCCCCCCCCCCCCC[N+](CCCCCC)(CCCCCC)CCCCCC.C[C@H](O)C(=O)[O-] ?
## Output 0.1

---

# Run Description: activity coefficient (dimensionless); of the first substance listed, at infinite dilution; xn = mol fraction of the nth substance listed
# Test Context: 343.15 K; 101 kPa; Liquid; Chromatography; x1 = 0
Where activity coefficient equals or exceeds 0.8, the correct label is fulfilled; where it does not, the label is not fulfilled.

CC(C)O [propan-2-ol] + CC1(C)[C@@H]2CC[C@@]1(CS(=O)(=O)[O-])C(=O)C2.CCCCCCCCCCCCCC[N+](CCCCCC)(CCCCCC)CCCCCC :: not fulfilled
c1ccccc1 [benzene] + CC1(C)[C@@H]2CC[C@@]1(CS(=O)(=O)[O-])C(=O)C2.CCCCCCCCCCCCCC[N+](CCCCCC)(CCCCCC)CCCCCC :: not fulfilled
Cc1ccccc1C [1,2-dimethylbenzene] + CC1(C)[C@@H]2CC[C@@]1(CS(=O)(=O)[O-])C(=O)C2.CCCCCCCCCCCCCC[N+](CCCCCC)(CCCCCC)CCCCCC :: fulfilled
ClC(Cl)(Cl)Cl [tetrachloromethane] + CC1(C)[C@@H]2CC[C@@]1(CS(=O)(=O)[O-])C(=O)C2.CCCCCCCCCCCCCC[N+](CCCCCC)(CCCCCC)CCCCCC :: not fulfilled

Next up:
## Input Test whether the compound CCCCCCCCCCCC [dodecane] + CC1(C)[C@@H]2CC[C@@]1(CS(=O)(=O)[O-])C(=O)C2.CCCCCCCCCCCCCC[N+](CCCCCC)(CCCCCC)CCCCCC records activity coefficient of 0.8 or higher.
## Output fulfilled

// provenance: the NIST ThermoML archive (doi:10.1021/je500050p)
